Recorded MIC values for a group of compounds are listed next.
# Test system: Staphylococcus epidermidis ATCC 12228
# test name: minimal inhibitory concentration, two-fold agar dilution
# Type: cell-based
# condition: ATCC12228, Muller-Hinton agar, 37°C, 20 hours, read-out: MIC values against the standard strains

structure smiles: CCO/N=C(\C(=O)N[C@@H]1C(=O)N2C(C(=O)[O-])=C(CSc3nc(N)cc(OCC(=O)O)[n+]3C)CS[C@H]12)c1csc(N)n1
result unit: µg/mL
MIC: 2

structure smiles: CCO/N=C(\C(=O)N[C@@H]1C(=O)N2C(C(=O)[O-])=C(CSc3nc(N)c(N)c[n+]3N)CS[C@H]12)c1csc(N)n1
result unit: µg/mL
MIC: 0.031

structure smiles: CO/N=C(\C(=O)N[C@@H]1C(=O)N2C(C(=O)[O-])=C(CSc3nc(N)c(N)c(N)[n+]3C)CS[C@H]12)c1csc(N)n1
result unit: µg/mL
MIC: 0.13

structure smiles: CCO/N=C(\C(=O)N[C@@H]1C(=O)N2C(C(=O)[O-])=C(CSc3nc(N)c4ccoc4[n+]3C)CS[C@H]12)c1csc(N)n1
result unit: µg/mL
MIC: 0.13

structure smiles: C[n+]1c(SCC2=C(C(=O)[O-])N3C(=O)[C@@H](NC(=O)/C(=N\O)c4csc(N)n4)[C@H]3SC2)nc(N)c(N)c1N
result unit: µg/mL
MIC: 0.063

###

# Tested on: Pseudomonas aeruginosa ATCC 25619
# test name: minimal inhibitory concentration, two-fold agar dilution
# Type: cell-based
# condition: ATCC25619, Muller-Hinton agar, 37°C, 20 hours, read-out: MIC values against the standard strains
Recorded MIC values for a group of molecules are listed next.

structure smiles: C[n+]1c(-c2ccccc2)cc(N)nc1SCC1=C(C(=O)[O-])N2C(=O)[C@@H](NC(=O)/C(=N\OC(C)(C)C(=O)O)c3csc(N)n3)[C@H]2SC1
MIC, µg/mL: 2

structure smiles: COc1cc(N)nc(SCC2=C(C(=O)[O-])N3C(=O)[C@@H](NC(=O)/C(=N\OC(C)(C)C(=O)O)c4csc(N)n4)[C@H]3SC2)[n+]1C
MIC, µg/mL: 1

structure smiles: CNc1cc(N)nc(SCC2=C(C(=O)[O-])N3C(=O)[C@@H](NC(=O)/C(=N\OC(C)(C)C(=O)O)c4csc(N)n4)[C@H]3SC2)[n+]1C
MIC, µg/mL: 2

structure smiles: C[n+]1cc(-c2ccccc2)c(N)nc1SCC1=C(C(=O)[O-])N2C(=O)[C@@H](NC(=O)/C(=N\OC(C)(C)C(=O)O)c3csc(N)n3)[C@H]2SC1
MIC, µg/mL: 2

structure smiles: CCO/N=C(\C(=O)N[C@@H]1C(=O)N2C(C(=O)[O-])=C(CSc3nc(N)c(N)c(N)[n+]3CC)CS[C@H]12)c1csc(N)n1
MIC, µg/mL: 8

structure smiles: CN(C)c1cc(N)nc(SCC2=C(C(=O)[O-])N3C(=O)[C@@H](NC(=O)/C(=N\OC(C)(C)C(=O)O)c4csc(N)n4)[C@H]3SC2)[n+]1C
MIC, µg/mL: 1

structure smiles: CCO/N=C(\C(=O)N[C@@H]1C(=O)N2C(C(=O)[O-])=C(CSc3nc(N)c(N)c(N)[n+]3CC)CS[C@H]12)c1nsc(N)n1
MIC, µg/mL: 1

structure smiles: CCO/N=C(\C(=O)N[C@@H]1C(=O)N2C(C(=O)[O-])=C(CSc3nc(N)cc(NC)[n+]3C)CS[C@H]12)c1csc(N)n1
MIC, µg/mL: 0.5

structure smiles: CC[n+]1ccc(N)nc1SCC1=C(C(=O)[O-])N2C(=O)[C@@H](NC(=O)/C(=N\OC(C)(C)C(=O)O)c3csc(N)n3)[C@H]2SC1
MIC, µg/mL: 2

structure smiles: C[n+]1c(SCC2=C(C(=O)[O-])N3C(=O)[C@@H](NC(=O)/C(=N\OC(C)(C)C(=O)O)c4csc(N)n4)[C@H]3SC2)nc(N)c(N)c1N
MIC, µg/mL: 1

structure smiles: CCO/N=C(\C(=O)N[C@@H]1C(=O)N2C(C(=O)[O-])=C(CSc3nc(N)cc[n+]3N)CS[C@H]12)c1csc(N)n1
MIC, µg/mL: 0.5

structure smiles: CC[C@@H](O/N=C(\C(=O)N[C@@H]1C(=O)N2C(C(=O)[O-])=C(CSc3nc(N)cc[n+]3N)CS[C@H]12)c1csc(N)n1)C(=O)O
MIC, µg/mL: 1

###

# System: Shigella sonnei ATCC 11060
# test name: minimal inhibitory concentration, two-fold agar dilution
# Assay type: cell-based
# condition: ATCC11060, Muller-Hinton agar, 37°C, 20 hours, read-out: MIC values against the standard strains

molecule: CC[n+]1ccc(N)nc1SCC1=C(C(=O)[O-])N2C(=O)[C@@H](NC(=O)/C(=N\OC(C)(C)C(=O)O)c3csc(N)n3)[C@H]2SC1 [Example 12]
MIC: 0.5 µg/mL
//
molecule: C[n+]1cc(-c2ccccc2)c(N)nc1SCC1=C(C(=O)[O-])N2C(=O)[C@@H](NC(=O)/C(=N\OC(C)(C)C(=O)O)c3csc(N)n3)[C@H]2SC1 [Example 21]
MIC: 0.13 µg/mL
//
molecule: C[n+]1ccc(N)nc1SCC1=C(C(=O)[O-])N2C(=O)[C@@H](NC(=O)/C(=N\OC(C)(C)C(=O)O)c3csc(N)n3)[C@H]2SC1 [Example 2]
MIC: 0.063 µg/mL

###

# System: Escherichia coli ATCC 10536
# test name: minimal inhibitory concentration, two-fold agar dilution
# Format: cell-based
# condition: ATCC10536, Muller-Hinton agar, 37°C, 20 hours, read-out: MIC values against the standard strains

compound: CCO/N=C(\C(=O)N[C@@H]1C(=O)N2C(C(=O)[O-])=C(CSc3nc(N)cc[n+]3C)CS[C@H]12)c1csc(N)n1 [Example 4]
result unit: µg/mL
MIC: 0.063

compound: CC[C@@H](O/N=C(\C(=O)N[C@@H]1C(=O)N2C(C(=O)[O-])=C(CSc3nc(N)cc[n+]3N)CS[C@H]12)c1csc(N)n1)C(=O)O [Example 88-b]
result unit: µg/mL
MIC: 0.063

compound: CCO/N=C(\C(=O)N[C@@H]1C(=O)N2C(C(=O)[O-])=C(CSc3nc(N)c(N)c(N)[n+]3C)CS[C@H]12)c1csc(N)n1 [Example 3]
result unit: µg/mL
MIC: 0.063

###

Recorded MIC values for a group of molecules are listed next.
# System: Providencia rettgeri ATCC 9250
# test name: minimal inhibitory concentration, two-fold agar dilution
# Format: cell-based
# condition: ATCC9250, Muller-Hinton agar, 37°C, 20 hours, read-out: MIC values against the standard strains

molecule: COc1cc(N)nc(SCC2=C(C(=O)[O-])N3C(=O)[C@@H](NC(=O)/C(=N\OC(C)(C)C(=O)O)c4csc(N)n4)[C@H]3SC2)[n+]1C
measurement target: Providencia rettgeri ATCC 9250
MIC: 130 ng/mL

molecule: CC(C)(O/N=C(\C(=O)N[C@@H]1C(=O)N2C(C(=O)[O-])=C(CSc3nc(N)c(N)c[n+]3N)CS[C@H]12)c1csc(N)n1)C(=O)O
measurement target: Providencia rettgeri ATCC 9250
MIC: ≤ 8 ng/mL

molecule: CC(C)(O/N=C(\C(=O)N[C@@H]1C(=O)N2C(C(=O)[O-])=C(C[n+]3ccccc3)CS[C@H]12)c1csc(N)n1)C(=O)O [Ceftazidime, reference compound]
measurement target: Providencia rettgeri ATCC 9250
MIC: ≤ 8 ng/mL

molecule: Nc1cc[n+](N)c(SCC2=C(C(=O)[O-])N3C(=O)[C@@H](NC(=O)/C(=N\OCC(=O)O)c4csc(N)n4)[C@H]3SC2)n1
measurement target: Providencia rettgeri ATCC 9250
MIC: ≤ 8 ng/mL

molecule: C[n+]1c(SCC2=C(C(=O)[O-])N3C(=O)[C@@H](NC(=O)/C(=N\OC(C)(C)C(=O)O)c4csc(N)n4)[C@H]3SC2)nc(N)c(N)c1N
measurement target: Providencia rettgeri ATCC 9250
MIC: ≤ 8 ng/mL

molecule: CCO/N=C(\C(=O)N[C@@H]1C(=O)N2C(C(=O)[O-])=C(CSc3nc(N)c(N)c(N)[n+]3C)CS[C@H]12)c1csc(N)n1
measurement target: Providencia rettgeri ATCC 9250
MIC: ≤ 8 ng/mL

###

Recorded MIC values for a group of compounds are listed next.
# System: Escherichia coli ATCC 10536
# test name: minimal inhibitory concentration, two-fold agar dilution
# Format: cell-based
# condition: ATCC10536, Muller-Hinton agar, 37°C, 20 hours, read-out: MIC values against the standard strains
# Procedure: These MIC values were taken by employing a two-fold dilution method: that is, two-fold serial dilutions of each of the test compounds were made and dispersed in a Muller-Hinton agar medium; 2µl of the standard test strain which had the 10⁷ CFU(Colony Forming Unit) per ml was inoculated on the medium; and these were incubated at 37°C for 20 hours.
attribute measured: MIC (µg/mL)

compound: CCO/N=C(\C(=O)N[C@@H]1C(=O)N2C(C(=O)[O-])=C(CSc3nc(N)c(N)c[n+]3N)CS[C@H]12)c1csc(N)n1 [Example 46]
measurement target: Escherichia coli ATCC 10536
result unit: µg/mL
readout value: 0.031
--
compound: C[n+]1ccc(N)nc1SCC1=C(C(=O)[O-])N2C(=O)[C@@H](NC(=O)/C(=N\OC(C)(C)C(=O)O)c3csc(N)n3)[C@H]2SC1 [Example 2]
measurement target: Escherichia coli ATCC 10536
result unit: µg/mL
readout value: 0.031
--
compound: CO/N=C(\C(=O)N[C@@H]1C(=O)N2C(C(=O)[O-])=C(CSc3nc(N)cc[n+]3C)CS[C@H]12)c1csc(N)n1 [Example 8]
measurement target: Escherichia coli ATCC 10536
result unit: µg/mL
readout value: 0.063
--
compound: CCO/N=C(\C(=O)N[C@@H]1C(=O)N2C(C(=O)[O-])=C(CSc3nc(N)cc[n+]3C)CS[C@H]12)c1nsc(N)n1 [Example 6]
measurement target: Escherichia coli ATCC 10536
result unit: µg/mL
readout value: 0.063
--
compound: CC(C)(O/N=C(\C(=O)N[C@@H]1C(=O)N2C(C(=O)[O-])=C(C[n+]3ccccc3)CS[C@H]12)c1csc(N)n1)C(=O)O [Ceftazidime, reference compound]
measurement target: Escherichia coli ATCC 10536
result unit: µg/mL
readout value: 0.13
--
compound: CCO/N=C(\C(=O)N[C@@H]1C(=O)N2C(C(=O)[O-])=C(CSc3nc(N)c(N)c(N)[n+]3CC)CS[C@H]12)c1nsc(N)n1 [Example 15]
measurement target: Escherichia coli ATCC 10536
result unit: µg/mL
readout value: 0.063
